- method notes: Plasma pharmacokinetics of tipifarnib, LCMS/MS, non-compartmental analysis
- Assay type: in vivo, human
- run parameters: human, plasma, oral, 1400 mg, Tmax, median, Day 1, 1400 mg, plasma
observable: Tmax

Give reported Tmax value for Cn1cncc1[C@@](N)(c1ccc(Cl)cc1)c1ccc2c(c1)c(-c1cccc(Cl)c1)cc(=O)n2C
3.1 h

###

- method notes: Plasma pharmacokinetics of tipifarnib, LCMS/MS, non-compartmental analysis
- Type: in vivo, human
- run parameters: human, plasma, oral, 1400 mg, Tmax, low, Day 1, 1400 mg, plasma
observable: Tmax (h)
Kindly provide the numeric value in h only, without the unit symbol.

Give reported Tmax value for Cn1cncc1[C@@](N)(c1ccc(Cl)cc1)c1ccc2c(c1)c(-c1cccc(Cl)c1)cc(=O)n2C [tipifarnib, Tipifarnib]
2

Data origin, for the record: paper PMC3165084
